# System: KM-20L2
# PROCEDURE_DETAILS: NCI tumour cell line growth inhibition, 48 h
The source made the active and inactive calls. Rule as the data show it: active = GI50 up to about 1.1 µM and inactive = higher.
# Lookup of reported GI50 keyed by entry
MEASURED_METRIC: GI50

> print(dat)
                                    compound             measured
 1  O=C(NCCCC/N=c1/cccccc1NCCCCNC(=O)OCc1ccccc1)OCc1ccccc1     11 µM (inactive)
 2  N#Cc1cccc(N2C(=O)C3C4C=CC(C3C2=O)C2C(=O)N(c3cccc(C#N)c3)C(=O)C42)c1 (stereo not given)  > 100 µM (inactive)
 3  CCc1c(C)[nH]c2c1/C(=N/N=C1\CCCc3[nH]c(C)c(CC)c31)CCC2     27 µM (inactive)
 4  O=C1CCCCCCC2=C1C(Sc1ccccc1)CC2 (stereo not given)   41.6 µM (inactive)
 5  OCC(O)C(O)C(O)c1nn(-c2ccc(F)cc2)c2nc3cc(Cl)c(Cl)cc3nc12 (stereo not given)   49.7 µM (inactive)
 6  CCN(CC)CCNc1ccc2ncn3c4cc(O)ccc4c(=O)c1c23    3.7 µM (inactive)
 7      O=c1c2cc(Br)ccc2[nH]c(=S)n1-c1ccccc1  > 100 µM (inactive)
 8  C/C1=C/C2OC(=O)C3(C)C2C(CC2(C)OC1=CC2=O)OC3(O)C(C)C (stereo not given)   21.8 µM (inactive)
 9  O=C(CC1C(=O)Nc2ccccc2S1(=O)=O)Nc1cc(Cl)ccc1Cl (stereo not given)   15.6 µM (inactive)
10  CCOC(=O)/C(=C\c1ccc(N(CCC#N)CCC#N)cc1C)NC(=O)/C=C/c1ccccc1  > 100 µM (inactive)

====

# Tested on: UO-31
# PROCEDURE_DETAILS: NCI tumour cell line growth inhibition, 48 h
The source made the active and inactive calls. Cut-off read from the data, not from the text of the source: active = GI50 up to about 1.1 µM and inactive = higher.
Outcome codes: 1 (yes) (active), 0 (no) (inactive)

> print(dat)
                                    compound  answer.label
 1  CCOC(=O)C(=O)CC(=O)C(Br)C(Br)c1ccc(Cl)cc1 (stereo not given)        0 (no)
 2      CC(C)/C(Cl)=N/OC(=O)Nc1ccc(F)c(Cl)c1        0 (no)
 3  CCN(CC)C(=S)SC1CCOP(=O)(N(CCCl)CCCl)N1C (stereo not given)        0 (no)
 4        Cn1c(=O)c2c(-c3ccccc3)onc2n(C)c1=O        0 (no)
 5  C[C@H]1CC[C@@H]2[C@@H](C)[C@H]3[C@H](C[C@H]4[C@@H]5CC=C6C[C@@H](O)CC[C@]6(C)[C@H]5CC[C@]34C)N2C1        0 (no)
 6  COc1ccc2nc3c([N+](=O)[O-])ccc(NCCCN(C)C)c3c(N)c2c1        0 (no)
 7  C/C1=C\[C@@H](O)C(=O)/C=C/C=C\c2csc(n2)[C@@H](C)NC(=O)C[C@@]2(CC1)[S+]([O-])SC(=O)[C@]2(C)O (stereo not given in full)       1 (yes)
 8  CN(C)CCNC(=O)c1cccc2[nH]c(-c3cccnc3)nc12        0 (no)
 9  N=C(N)NS(=O)(=O)c1ccc(NC(=O)c2cccc3c(Nc4ccc(S(=O)(=O)N=C(N)N)cc4)c4ccccc4nc23)cc1        0 (no)
10  COc1ccc(NC(=S)N/N=C\c2ccc(NC(C)=O)cc2)cc1        0 (no)
11  CCCCP(CCCC)(CCCC)=C(C(=O)OC)C(C(=O)OC)=C1SC(C(=O)OC)=C(C(=O)OC)S1        0 (no)
12                 CCCCNc1nc(SC)nc2[nH]cnc12        0 (no)
13  COc1ccc(-n2c(CCC(=O)O)nc3c2C(=O)c2ccccc2C3=O)cc1        0 (no)
14  CCN(CC)CCNc1ccc2ncn3c4cc(O)ccc4c(=O)c1c23        0 (no)
15  O=c1n(-c2ccccc2)c(=O)n2n1C1C=CC2C2C(C1)C2(Cl)Cl (stereo not given)        0 (no)
16  COc1ccc(C(Cl)=C(c2ccc(OCCN(C)C)cc2)c2ccc(OCCN(C)C)cc2)cc1        0 (no)
17  Cc1ccc(C2(N3CCCC3)OC(C)(C)c3cccc4cccc2c34)cc1 (stereo not given)        0 (no)
18           CC1(C)O[C@@H](CCl)C[C@H](C#N)O1        0 (no)
19                 O=C1c2ccccc2C(=O)N1CC#CCO        0 (no)
20  COC(=O)c1ccccc1/C=C1\Cc2ccc3ccccc3c2C1C (stereo not given)        0 (no)

====

# System: COLO 205
# PROCEDURE_DETAILS: NCI tumour cell line growth inhibition, 48 h
Active and inactive are the calls of the source. Rule as the data show it: active = GI50 up to about 1.1 µM and inactive = higher.
Outcome codes: 1 (yes) (active), 0 (no) (inactive)

> print(dat)
                                   molecule  answer.label
1  N[C@H]1CCN(c2c(F)cc3c(=O)c(C(=O)O)cn4c3c2Oc2cc3c(ccc5ccccc53)cc2-4)C1        0 (no)
2  COC(=O)c1nc(NN)cc(O)c1CCCCCc1c(O)nc(NN)nc1C(=O)OC        0 (no)
3  Cc1ccc(C2(N3CCCC3)OC(C)(C)c3cccc4cccc2c34)cc1 (stereo not given)        0 (no)
4     COc1ccc2cc(CN3CCC(C4CCNCC4)CC3)ccc2c1        0 (no)
5     C/C(=N\Nc1nc2ccccc2n1C)c1cc2ccccc2cn1       1 (yes)

====

# Lookup of reported GI50 keyed by entry
# Test system: NCI/ADR-RES
# PROCEDURE_DETAILS: NCI tumour cell line growth inhibition, 48 h
The source made the active and inactive calls. No stated cut-off is given here; in the data, active = GI50 up to about 1.1 µM and inactive = higher.
MEASURED_METRIC: GI50

> print(dat)
                                    compound  measured.metric             measured
 1  O=C(Nc1ncc([N+](=O)[O-])s1)c1ccccc1O [TIZOXANIDE]             GI50   13.6 µM (inactive)
 2  CS(=O)(=O)OCC1CCCCCCCCCCC12SCCCS2 (stereo not given)             GI50  > 100 µM (inactive)
 3  O=C1C[C@@H](Sc2ccccc2)C2(OCCO2)[C@H]2ON3CCC[C@@H]3[C@@H]12             GI50   3.31 µM (inactive)
 4  O=[N+]([O-])c1sc2ccc(Cl)cc2c1Nc1ccc(Cl)cc1             GI50  > 100 µM (inactive)
 5                          ClC1=NSSC1(Cl)Cl             GI50   34.8 µM (inactive)
 6  Fc1ccc(NCn2nc(COc3ccccc3Cl)n(/N=C/c3ccc(-c4ccc(Cl)cc4Cl)o3)c2=S)cc1Cl             GI50   43.5 µM (inactive)
 7        Cn1c(=O)c2c(-c3ccccc3)onc2n(C)c1=O             GI50   27.5 µM (inactive)
 8  COc1cc(/C=C2\N=C(c3ccccc3)N(c3nc4ccc(Sc5ccccc5)cc4[nH]3)C2=O)ccc1O             GI50   18.7 µM (inactive)
 9  C[N+](C)(C)CCOP(=O)([O-])OCCNC(=O)c1ccc2ccccc2c1             GI50   31.5 µM (inactive)
10  CCCCCOc1ccc(/C=N\c2ccc(CCc3ccc(/N=C/c4ccc(OCCCCC)cc4)cc3)cc2)cc1             GI50  > 100 µM (inactive)
11          CCN(CC)CCOC(=O)CCN1CC2CCC(CC2)C1             GI50  > 100 µM (inactive)
12  CN(C)CC1COC2Cc3ccccc3C1O2 (stereo not given)             GI50  > 100 µM (inactive)
13  O=C1CSC(c2cc3cc(Br)ccc3nc2Cl)N1c1ccc(F)c(Cl)c1 (stereo not given)             GI50   > 50 µM (inactive)
14  CCCC[C@H]1C(=O)O[C@H](C)[C@H](NC(=O)c2cccc(NC=O)c2O)C(=O)O[C@@H](C)[C@@H]1OC(=O)CC(C)C [ANTIMYCIN A3]             GI50   5.32 µM (inactive)
15  OCC1OC(Oc2cc(O)cc(/C=C\c3ccc(O)cc3)c2)C(O)C(O)C1O (stereo not given)             GI50  > 100 µM (inactive)
16  COc1ccc(N2C(=O)CC(c3c[nH]c4ccccc34)C2=O)cc1 (stereo not given)             GI50   97.3 µM (inactive)
17                         O=C(O)CCCN1CCCCC1             GI50  > 100 µM (inactive)
18  Cc1ccc(S(=O)(=O)NC(=O)NC(C(=O)O)C(C)C)cc1 (stereo not given)             GI50  > 100 µM (inactive)
19              NC(=O)/N=C(\N)NC(=O)c1ccccc1             GI50  > 100 µM (inactive)
20  O=C1N[C@@H](c2c[nH]c3cc(Br)ccc23)C(=O)N[C@H]1c1c[nH]c2cc(Br)ccc12             GI50  > 100 µM (inactive)
21     Cc1nc2cccc(F)c2c(=O)n1-c1nnc(C2CC2)s1             GI50   > 10 µM (inactive)
22  Nc1ccc2c(SCc3ccc([N+](=O)[O-])cc3)c3ccccc3nc2c1             GI50   18.2 µM (inactive)
23  COc1ccc(NC(C(N)=O)c2cc3cc(Br)ccc3nc2Cl)cc1 (stereo not given)             GI50     39 µM (inactive)
24  C[N+]1([O-])[C@H]2CC(OC(=O)[C@H](CO)c3ccccc3)C[C@H]1[C@H]1O[C@H]12 (stereo not given in full)             GI50  > 100 µM (inactive)
25         Oc1cc(-c2ccc(F)cc2)nc2ncc(Cl)cc12             GI50     18 µM (inactive)
